Origin of values: paper PMC8640094

test system: HepG2 (hepatoma cancer); assay: MTT cytotoxicity assay, HepG2 cells; type: cell-based, human; details: Homo sapiens, HepG2, 72 h, HepG2, c 4.00 μM, three replicates; read-out: cell inhibition
test_readout: inhibition at 4 µM (%)
Response body: numeric value in %, unit text excluded.

Exercise: Field: inhibition at 4 µM (HepG2 (hepatoma cancer)). Entry: CC(C)[C@@H](C)/C=C/[C@@H](C)C1CCC2C3=CC(=O)OC4=CC(=O)CC[C@]4(C)C3CC[C@@]21C (stereo partly drawn) [compound 9, fortisterol]
Key: 15.3

Exercise: Which measured inhibition at 4 µM belongs to CC(C)[C@@H](C)C=C[C@@H](C)[C@H]1CC[C@@]2(O)C3=CC(=O)C4=CC(=O)CC[C@]4(C)[C@H]3CC[C@]12C [compound 8] , tested on HepG2 (hepatoma cancer)?
Key: 34.1

Exercise: Identify the measured inhibition at 4 µM of CC(C)[C@@H](C)/C=C/[C@@H](C)[C@H]1CCC(=O)[C@]23CC(=O)C4=CC(=O)CC[C@]4(C)[C@H]2CC[C@]13C [compound 7, dankasterone A] for HepG2 (hepatoma cancer).
Key: 49

Exercise: Form field: inhibition at 4 µM recorded for CC(=O)OC(C)C(C)=CC=CC1(C)OC(=O)C(C)C1O (stereo not drawn) [compound 1, diaportone A] with HepG2 (hepatoma cancer) (enter value)
Key: 21.3

Exercise: Which inhibition at 4 µM is reported with HepG2 (hepatoma cancer) for this entry: CCCC(O)C1=C(C)C(=O)C(C)C1 (stereo not drawn) [compound 3, diaportone B] ?
Key: 19.2

Exercise: Test system HepG2 (hepatoma cancer); read-out inhibition at 4 µM; what value for COc1cccc2c1C(=O)c1c(O)c3c(c(O)c1C2=O)C[C@@](O)(C(=O)CO)C[C@@H]3O[C@H]1C[C@H](N)[C@H](O)[C@H](C)O1 [Adriamycin, reference compound] ?
Key: 66.2

Exercise: Lab note: need inhibition at 4 µM for C/C(=C\C=C\[C@]1(C)OC(=O)[C@@H](C)[C@@H]1O)[C@H](C)O [compound 2, colletolides A] on HepG2 (hepatoma cancer), anyone have it?
Key: 7.34

Exercise: Form entry - test system: HepG2 (hepatoma cancer); read-out: inhibition at 4 µM; molecule: CC1(O)CC2OC23C(C)(C)C(Cl)CCC3(C)C1C(=O)O (stereo not drawn) [compound 6, altiloxin B]
Key: 10.6

Exercise: Request: inhibition at 4 µM, test system HepG2 (hepatoma cancer), entry CCCC(O)C1=C(C)C(=O)CC1C (stereo not drawn) [compound 4, phomotenone]
Key: 14.3
